- system_under_test: P2X purinoceptor 7 (Homo sapiens)
- Sequence (Q99572 whole entry): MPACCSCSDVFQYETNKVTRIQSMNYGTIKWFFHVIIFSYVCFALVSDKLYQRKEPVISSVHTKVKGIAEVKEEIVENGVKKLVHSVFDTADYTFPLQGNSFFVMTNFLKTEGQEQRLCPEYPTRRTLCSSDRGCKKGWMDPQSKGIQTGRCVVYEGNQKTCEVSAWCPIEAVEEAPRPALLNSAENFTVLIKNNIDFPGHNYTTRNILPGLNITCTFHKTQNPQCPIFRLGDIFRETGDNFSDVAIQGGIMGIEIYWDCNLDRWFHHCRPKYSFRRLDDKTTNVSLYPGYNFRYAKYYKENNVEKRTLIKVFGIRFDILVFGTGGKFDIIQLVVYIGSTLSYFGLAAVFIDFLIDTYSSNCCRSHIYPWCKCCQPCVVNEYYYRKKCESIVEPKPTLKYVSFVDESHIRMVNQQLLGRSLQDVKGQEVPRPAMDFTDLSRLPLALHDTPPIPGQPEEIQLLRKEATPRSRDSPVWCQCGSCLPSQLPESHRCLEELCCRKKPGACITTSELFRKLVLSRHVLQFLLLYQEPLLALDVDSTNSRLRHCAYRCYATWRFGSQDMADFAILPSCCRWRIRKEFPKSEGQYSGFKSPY
- assay_comment: Antagonist activity at P2X7 receptor in human whole blood assessed as reduction in LPS/BzATP-induced IL-1beta release preincubated with LPS-stimulated cells for 30 mins followed by BzATP addition measured after 1.5 hrs by ELISA
- Assay type: tissue-based
pIC50: −log10 of the molar value.
measured_metric: pIC50

P. O=C(NCC(c1cnc(C(F)(F)F)nc1)N1CCC(F)(F)CC1)c1c(Cl)ccc2nc(N3CC[C@@H](O)C3)ccc12 (stereo partly drawn)
Q. O=C(NCC(c1cnc(C(F)(F)F)nc1)N1CCC(F)(F)CC1)c1c(Cl)ccc2nc(N3CCOCC3)ccc12 (stereo not drawn)
R. O=C(NCC(c1cnc(C(F)(F)F)nc1)N1CCC(F)(F)CC1)c1c(Cl)ccc2nc(NC3CC3)ccc12 (stereo not drawn)
# descending pIC50 order for the listed molecules Give the labels in the order requested. P, R, Q
(P: 7.06, R: 6.85, Q: 6.42)

---

- assay_comment: Plasma concentration in mouse at 50 mg/kg, po measured at 4 hrs
- Format: ADME, organism-based
measured_metric: concentration at 4 h (ng/mL)
Use ng/mL as the unit, but write only the number.

The reported concentration at 4 h of the compound O=C(NCC(c1cnc(C(F)(F)F)nc1)N1CCC(F)(F)CC1)c1c(Cl)ccc2nc(N3CC[C@@H](O)C3)ccc12 (stereo partly specified) was 6420

---

- assay_comment: Drug uptake in mouse brain at 50 mg/kg, po measured at 4 hrs
- Format: ADME, organism-based
- test_settings: read-out: Drug uptake
measured_metric: concentration at 4 h (ng/mL)
Use ng/mL as the unit, but write only the number.

The reported concentration at 4 h of the compound O=C(NCC(c1cnc(C(F)(F)F)nc1)N1CCC(F)(F)CC1)c1c(Cl)ccc2nc(N3CC[C@@H](O)C3)ccc12 (stereo partly specified) was 21

---

- system_under_test: P2X purinoceptor 7 (Mus musculus, UniProt Q9Z1M0)
- Sequence (Q9Z1M0 whole entry): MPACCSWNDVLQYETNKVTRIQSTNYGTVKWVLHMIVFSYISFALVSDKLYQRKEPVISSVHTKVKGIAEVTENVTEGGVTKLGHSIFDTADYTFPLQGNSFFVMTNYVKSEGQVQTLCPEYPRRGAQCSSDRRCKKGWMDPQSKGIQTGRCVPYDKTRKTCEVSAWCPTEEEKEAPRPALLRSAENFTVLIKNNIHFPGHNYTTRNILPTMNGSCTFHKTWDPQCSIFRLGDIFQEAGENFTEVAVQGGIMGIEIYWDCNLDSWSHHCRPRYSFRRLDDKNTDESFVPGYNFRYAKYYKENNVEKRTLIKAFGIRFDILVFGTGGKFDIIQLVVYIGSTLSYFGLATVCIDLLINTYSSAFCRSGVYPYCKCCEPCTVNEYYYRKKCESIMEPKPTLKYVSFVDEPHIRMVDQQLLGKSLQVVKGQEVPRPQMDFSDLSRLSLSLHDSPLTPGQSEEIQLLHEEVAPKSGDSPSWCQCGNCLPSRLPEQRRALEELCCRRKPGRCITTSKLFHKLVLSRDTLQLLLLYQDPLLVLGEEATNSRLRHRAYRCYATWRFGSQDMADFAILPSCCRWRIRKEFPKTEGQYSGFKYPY
- assay_comment: Antagonist activity at mouse P2X7 receptor assessed as reduction in calcium flux by FLIPR calcium flux assay
measured_metric: IC50 (µM)

O=C(NCC(c1cnc(C(F)(F)F)nc1)N1CCC(F)(F)CC1)c1c(Cl)ccc2nc(NC3CC3)ccc12 (stereo unspecified) | 0.123
O=C(NCC(c1cnc(C(F)(F)F)nc1)N1CCC(F)(F)CC1)c1c(Cl)ccc2nc(N3CC[C@@H](O)C3)ccc12 (stereo partly specified) | 0.08

I. O=C(NCC(c1cnc(C(F)(F)F)nc1)N1CCC(F)(F)CC1)c1c(Cl)ccc2nc(N3CCOCC3)ccc12 (stereo unspecified)
II. Nc1ccc2c(C(=O)NCC(c3cnc(C(F)(F)F)nc3)N3CCC(F)(F)CC3)c(Cl)ccc2n1 (stereo unspecified)
III. CNc1ccc2c(C(=O)NCC(c3cnc(C(F)(F)F)nc3)N3CCC(F)(F)CC3)c(Cl)ccc2n1 (stereo unspecified)
IV. CN1CCN(c2ccc3c(C(=O)NCC(c4cnc(C(F)(F)F)nc4)N4CCC(F)(F)CC4)c(Cl)ccc3n2)CC1 (stereo unspecified)
hey, can you rank those compounds up there by IC50? biggest number first please Give the labels in the order requested. II, IV, III, I
(II: 1.09 µM, IV: 0.486 µM, III: 0.305 µM, I: 0.103 µM)
